# Test system: A549
# assay procedure: Growth inhibition of human A549 cells
# Type: functional, cell-based
property: IC50 (µM)
Numbers only, in µM.

Dear colleague, I am looking for the recorded IC50 of the following compound: O=C1Nc2ccccc2/C1=C\c1nc(-c2ccccc2F)n2ccccc12 6.5

Hey, just so you know, these numbers are from ChEMBL document CHEMBL1799966.
